These measurements were taken from patent US20220315554A1.

- TARGET: Human recombinant FAP (Homo sapiens, UniProt Q12884)
- Sequence (Q12884 whole entry): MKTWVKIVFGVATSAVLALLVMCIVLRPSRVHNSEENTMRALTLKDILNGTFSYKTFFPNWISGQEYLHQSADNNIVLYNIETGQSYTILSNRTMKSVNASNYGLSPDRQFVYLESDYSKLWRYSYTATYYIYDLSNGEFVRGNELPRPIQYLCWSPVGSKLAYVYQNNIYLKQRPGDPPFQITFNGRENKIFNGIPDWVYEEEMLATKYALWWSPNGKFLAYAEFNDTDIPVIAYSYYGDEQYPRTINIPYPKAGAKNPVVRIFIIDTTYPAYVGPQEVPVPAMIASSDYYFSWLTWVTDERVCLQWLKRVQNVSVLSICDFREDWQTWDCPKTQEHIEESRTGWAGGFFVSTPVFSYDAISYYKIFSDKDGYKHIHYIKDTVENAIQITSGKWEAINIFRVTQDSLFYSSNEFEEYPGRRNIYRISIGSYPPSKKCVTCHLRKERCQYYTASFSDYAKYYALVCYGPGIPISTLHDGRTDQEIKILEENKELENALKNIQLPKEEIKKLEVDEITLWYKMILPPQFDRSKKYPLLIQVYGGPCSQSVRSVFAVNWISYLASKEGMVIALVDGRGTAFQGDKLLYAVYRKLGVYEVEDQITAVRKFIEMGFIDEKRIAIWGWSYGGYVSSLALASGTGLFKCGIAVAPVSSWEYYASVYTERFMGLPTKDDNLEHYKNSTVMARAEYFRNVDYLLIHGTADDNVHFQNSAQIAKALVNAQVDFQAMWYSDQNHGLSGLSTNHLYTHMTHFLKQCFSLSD
- ASSAY: FRET-based FAP protease activity assay
- Format: biochemical
- Parameters: purchased R&D systems 3715-SE
- CONDITION_SUMMARY: pIC50 Category (Activity), FRET substrate, 37° C.
Numbered stars: 1 amine (or outer) side, 2 acyl side, 3 side chain; on linkers, the order of the positions; unused ones are H or OH. Bridge positions count the residues as written; N and C are the ends. Square brackets hold non-standard residues; d marks the D form. Peptide text beside a SMILES is read from it. * marks the point of attachment. X7 = O=C(CN1CCN2CCN3CCN(CC1)CC(=O)[O][In]([O]C(=O)C2)[O]C(=O)C3)NCCSCc1cc(C[*:1])cc(C[*:2])c1; mXylylene = c1cc(C[*:1])cc(C[*:2])c1; X18 = NCCNCC(CNCCN)C(=O)*; Nle = CCCC[C@H](N)C(=O)O; Hexanoyl = CCCCCC(=O)*; AEEA = NCCOCCOCC(=O)O; Sar = CNCC(=O)O
List of IC50 values.

CCCCCC(=O)N[C@H]1CSCc2cc(CSCCNC(=O)CN3CCN4CCN5CCN(CC3)CC(=O)[O][In]([O]C(=O)C4)[O]C(=O)C5)cc(c2)CSC[C@@H](C(=O)O)NC(=O)[C@H](Cc2ccccc2)NC(=O)[C@H](CCC(N)=O)NC(=O)[C@H]([C@@H](C)O)NC(=O)[C@@H]2CCCN2C(=O)CN(C)C1=O [3BP-3716] (Hexanoyl-C[Sar]PTQFC-OH; linker 1-7 via X7)	< 10 nM

Now for a further compound.
What is its IC50 for Human recombinant FAP (Homo sapiens, UniProt Q12884)? Entry: CCCC[C@H](NC(=O)COCCOCCNC(=O)C(CNCCN)CNCCN)C(=O)N[C@H]1CSCc2cccc(c2)CSC[C@@H](C(=O)O)NC(=O)[C@H](Cc2ccccc2)NC(=O)[C@H](CCC(=O)O)NC(=O)[C@H]([C@@H](C)O)NC(=O)[C@@H]2CCCN2C(=O)[C@@H]2CCCN2C1=O [3BP-4228] ({X18-AEEA}-[Nle]CPPTEFC-OH; linker 2-8 via mXylylene)
100 to 794 nM
